Molecular target: DLG1_2, Q12959
Sequence (Q12959 314-412): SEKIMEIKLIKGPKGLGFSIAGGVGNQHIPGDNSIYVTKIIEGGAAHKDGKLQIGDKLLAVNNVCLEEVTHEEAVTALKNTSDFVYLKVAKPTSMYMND
Experiment: holdup assay
Parameters: key: below the threshold = too weak to quantify, mostly under pKd 3.1 to 4
Details: plain residues with an end cap or a label only (N-terminal biotin on a linker: ado-ado)
Property name: pKd

TPPAAKKSRI [BAZ1A, Q9NRL2]
below the threshold
TACCHSETVV [TGFA, P01135]
4.89
QSARLWETSI [ADAM22, Q9P0K1]
4.47
RKPKPSSSCC [RAB9A, P51151]
below the threshold
